Reference for the values: patent US12421225B2

Recorded pIC50 values for a group of compounds are listed next.
# system-tested: human Nav1.5 (Homo sapiens (Human))
# Sequence (Q14524 whole entry): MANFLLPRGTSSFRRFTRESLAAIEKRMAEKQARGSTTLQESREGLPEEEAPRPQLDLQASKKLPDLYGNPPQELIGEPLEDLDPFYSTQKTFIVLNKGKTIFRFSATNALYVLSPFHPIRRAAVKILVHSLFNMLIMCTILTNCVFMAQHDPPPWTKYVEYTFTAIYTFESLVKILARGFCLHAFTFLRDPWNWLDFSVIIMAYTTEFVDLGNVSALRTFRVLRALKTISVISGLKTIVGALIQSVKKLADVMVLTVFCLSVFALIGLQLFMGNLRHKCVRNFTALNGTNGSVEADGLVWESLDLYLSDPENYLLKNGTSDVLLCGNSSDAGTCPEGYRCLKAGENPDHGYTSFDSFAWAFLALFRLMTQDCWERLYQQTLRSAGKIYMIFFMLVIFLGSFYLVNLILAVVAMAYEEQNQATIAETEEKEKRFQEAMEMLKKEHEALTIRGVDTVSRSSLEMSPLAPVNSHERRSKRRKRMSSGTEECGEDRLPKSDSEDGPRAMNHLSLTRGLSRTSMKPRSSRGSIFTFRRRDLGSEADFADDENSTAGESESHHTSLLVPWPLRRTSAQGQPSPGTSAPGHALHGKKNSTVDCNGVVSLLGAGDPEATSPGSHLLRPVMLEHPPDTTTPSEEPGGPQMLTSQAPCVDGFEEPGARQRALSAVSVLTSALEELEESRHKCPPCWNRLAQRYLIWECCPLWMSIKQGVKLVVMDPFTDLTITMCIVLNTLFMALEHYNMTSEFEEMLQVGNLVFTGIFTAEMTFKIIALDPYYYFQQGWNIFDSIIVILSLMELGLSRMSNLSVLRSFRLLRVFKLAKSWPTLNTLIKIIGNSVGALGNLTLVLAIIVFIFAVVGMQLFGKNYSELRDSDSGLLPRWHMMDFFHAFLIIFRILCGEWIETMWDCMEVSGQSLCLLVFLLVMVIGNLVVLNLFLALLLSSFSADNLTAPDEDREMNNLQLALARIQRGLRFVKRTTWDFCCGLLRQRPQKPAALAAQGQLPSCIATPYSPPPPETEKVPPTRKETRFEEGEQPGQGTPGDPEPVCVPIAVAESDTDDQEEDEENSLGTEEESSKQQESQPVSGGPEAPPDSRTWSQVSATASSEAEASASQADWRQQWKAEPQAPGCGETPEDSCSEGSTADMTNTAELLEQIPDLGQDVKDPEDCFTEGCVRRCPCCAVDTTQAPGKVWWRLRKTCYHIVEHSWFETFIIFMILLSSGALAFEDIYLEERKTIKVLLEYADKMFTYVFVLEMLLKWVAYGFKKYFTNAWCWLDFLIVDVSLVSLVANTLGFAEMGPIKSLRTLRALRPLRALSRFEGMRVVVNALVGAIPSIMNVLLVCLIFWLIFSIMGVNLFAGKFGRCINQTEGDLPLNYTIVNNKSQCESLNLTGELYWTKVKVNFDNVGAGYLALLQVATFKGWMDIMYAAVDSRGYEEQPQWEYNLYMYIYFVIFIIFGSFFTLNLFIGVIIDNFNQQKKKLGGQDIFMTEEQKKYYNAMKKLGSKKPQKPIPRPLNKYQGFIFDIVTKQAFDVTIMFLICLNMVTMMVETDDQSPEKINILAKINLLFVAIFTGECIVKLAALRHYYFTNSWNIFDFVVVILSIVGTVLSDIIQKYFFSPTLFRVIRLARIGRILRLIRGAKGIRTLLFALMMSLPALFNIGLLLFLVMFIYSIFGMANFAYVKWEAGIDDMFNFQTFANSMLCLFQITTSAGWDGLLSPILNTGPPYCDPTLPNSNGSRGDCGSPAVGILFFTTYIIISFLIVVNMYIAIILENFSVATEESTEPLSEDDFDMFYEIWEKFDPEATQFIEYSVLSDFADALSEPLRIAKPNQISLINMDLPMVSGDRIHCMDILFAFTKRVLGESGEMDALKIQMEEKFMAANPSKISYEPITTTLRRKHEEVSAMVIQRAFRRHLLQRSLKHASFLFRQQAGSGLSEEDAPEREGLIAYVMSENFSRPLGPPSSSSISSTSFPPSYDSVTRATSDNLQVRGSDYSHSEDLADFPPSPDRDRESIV
# assay-procedure: Human Nav1.5 inhibitory activity evaluation (automated patch clamp QPatch16X, HEK293 cells stably expressing human Nav1.5)
# Type: cell-based
# reported-conditions: human Nav1.5, automated patch clamp
pIC50: −log10 of the molar value.

Task: Can you share its pIC50? I mean this compound: CN(CCc1cccc(C(F)(F)F)c1)C(=O)c1cn2c(n1)CN(C)C(c1ccccc1)C2 (stereo not drawn) [Example 332]
Output: ≤ 5.52

Task: Query (compound): N#Cc1ccc2c(c1)C[C@@H](NC(=O)c1cc3n(n1)CC(CCOCC1CC1)O3)CO2 (stereo partly drawn) [Example 201] ; field requested: pIC50
Output: 5.52 to 6.00

Task: Tell me the measured pIC50 of CN1Cc2nc(C(=O)NCCc3cccc(OCC4CCOCC4)c3)cn2CC1c1ccccc1 (stereo not drawn) [Example 327] , please.
Output: ≤ 5.52

Task: What pIC50 value was documented for this compound, O=C(N[C@H]1COc2ccc(Cl)cc2C1)c1cc2n(n1)CCC(C(F)F)O2 (single isomer, unassigned) [158 (isomer A)] ?
Output: ≤ 5.52

Task: Requested field: pIC50. Item: O=C(N[C@H]1COc2ccc(-c3cnccn3)cc2C1)c1cc2n(n1)CC(CCOC(F)F)O2 (stereo partly drawn) [Example 222]
Output: ≤ 5.52

Task: Consider the compound shown here: O=C(N[C@H]1COc2ccc(C(F)(F)F)cc2C1O)c1cc2n(n1)CC(CCOCC(F)(F)F)O2 (single isomer, unassigned) [600 (isomer B)] What is its recorded pIC50?
Output: 5.52 to 6.00

Task: Any idea what pIC50 was measured for CN1Cc2nc(C(=O)NCCc3cccc(C(F)(F)F)c3)cn2CC1c1cccnc1C(F)(F)F (stereo not drawn) [Example 326] ?
Output: ≤ 5.52

Task: State the recorded pIC50 for this entry: CC1(C)CCn2nc(C(=O)N[C@H]3COc4ccc(-c5ccccn5)cc4C3)cc2O1 [Example 383]
Output: ≤ 5.52

Task: Tell me the measured pIC50 of O=C(c1cn2c(n1)CNC(c1cccc(OC(F)(F)F)c1)C2)N1CCOC(c2cccc(C(F)(F)F)c2)C1 (stereo not drawn) [Example 337] , please.
Output: ≤ 5.52

Task: Reported pIC50 for O=C(N[C@H]1COc2ccc(COCC(F)(F)F)cc2C1)c1cc2n(n1)CC(CCNCC(F)(F)F)O2 (stereo partly drawn) [Example 231] : what is it?
Output: ≤ 5.52

Task: Given the compound O=C(N[C@H]1COc2ccc(COCC(F)(F)F)cc2C1)c1cc2n(n1)CCC(C1CCOCC1)O2 (single isomer, unassigned) [615 (isomer B)] , what is its reported pIC50?
Output: ≤ 5.52

Task: Returns the measured pIC50 for the input compound. Input: COc1ncc(C(F)(F)F)cc1C1CCc2nc(C(=O)N3CCC(c4ccccc4)C3)cn2C1 (stereo not drawn) [Example 316]
Output: 5.52 to 6.00

Task: Record request: pIC50 value, item O=C(N[C@H]1COc2ccccc2C1)c1cc2n(n1)CCN(CC(F)(F)C(F)(F)F)C2 [Example 487]
Output: 5.52 to 6.00

Task: Name the recorded pIC50 for O=C(N[C@H]1COc2ccc(Cl)cc2C1)c1cc2n(n1)CCN(C1(C(F)(F)F)CC1)C2 [Example 283] .
Output: > 6.00

Task: Param item = O=C(N[C@H]1COc2ccc(COCC(F)(F)F)cc2C1)c1cc2n(n1)CC(C(F)(F)F)O2 (single isomer, unassigned) [184 (isomer A)] ; retrieve measured pIC50.
Output: 5.52 to 6.00
